Target: rhGPVI (Homo sapiens, UniProt Q9HCN6)
reported.endpoint: pIC50
Quick note: pIC50 means taking -log10 of the concentration in moles per liter.

Please report pIC50 with rhGPVI (Homo sapiens, UniProt Q9HCN6) for item O=c1cc(-c2ccc(O)c(O)c2)oc2cc(O)cc(O)c12 [Luteolin] . 5.26

###

Target: Recombinant human GPVI protein (Homo sapiens)
Sequence (Q9HCN6 21-267 limits assumed): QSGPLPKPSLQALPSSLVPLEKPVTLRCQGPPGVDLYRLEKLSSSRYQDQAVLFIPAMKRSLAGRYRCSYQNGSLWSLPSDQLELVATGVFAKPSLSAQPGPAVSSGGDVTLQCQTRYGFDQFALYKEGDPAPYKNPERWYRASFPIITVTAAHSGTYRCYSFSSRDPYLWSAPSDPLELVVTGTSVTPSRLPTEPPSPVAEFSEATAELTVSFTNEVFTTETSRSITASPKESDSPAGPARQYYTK
Assay: Surface plasmon resonance (SPR)
Conditions: Biacore S200, 25°C, 1:1 binding model
reported.endpoint: Kd

Report measured Kd; entry is O=c1cc(-c2ccc(O)c(O)c2)oc2cc(O)cc(O)c12 [Luteolin] 4.13 µM

###

System: human washed platelets
Experiment: Platelet aggregation assay (Chrono-Log aggregometer)
Format: cell-based
Conditions: Homo sapiens, Platelet, 10 min, read-out: IC50, inhibition of platelet aggregation, convulxin (5 ng/mL)-induced; 10 min incubation at 37°C
Description: Blood was collected from a median cubital vein using a 3.8% sodium citrate anticoagulation tube with a 1:9 dilution ratio. The platelets were washed using a previously described method with slight modification ([Babur et al., 2020]; [Uphaus et al., 2022]). […] Platelet aggregation and ATP release were detected using the Chrono-Log platelet aggregation instrument (Chrono-Log Corp., Havertown, Pennsylvania, United States), as previously reported ([Babur et al., 2020]). […]
reported.endpoint: IC50 (µM)
Write the answer as a number in µM, unit excluded.

Report measured IC50; entry is O=c1cc(-c2ccc(O)c(O)c2)oc2cc(O)cc(O)c12 8.66
